# test.target: T1, MucB (pET22b-MucB-6His) (P. aeruginosa, UniProt P38108 22-316)
# T1 construct: source: E. coli BL21 (DE3), purified (Ni–NTA, Superdex-75)
# T1 sequence: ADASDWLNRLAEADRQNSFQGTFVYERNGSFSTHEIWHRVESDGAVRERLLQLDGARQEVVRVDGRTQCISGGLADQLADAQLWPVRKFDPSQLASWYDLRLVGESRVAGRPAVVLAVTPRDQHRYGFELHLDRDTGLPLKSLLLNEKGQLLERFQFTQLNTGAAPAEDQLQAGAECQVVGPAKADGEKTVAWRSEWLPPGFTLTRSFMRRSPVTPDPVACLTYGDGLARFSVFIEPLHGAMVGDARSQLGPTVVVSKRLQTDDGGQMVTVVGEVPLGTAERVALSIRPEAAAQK
# test.method.notes: ITC; MucB (20 µM) in the sample cell titrated with MucA^peri (200 µM), 19 injections; 25 mM Tris–HCl (pH 7.5), 150 mM NaCl, 25 °C
# test.parameters: both partners purified
measured.attribute: pKd
# pKd = -log10(concentration in molar units)

Enquiry: Consider the binder periplasmic region of MucA (MucA^peri: residues 106–194), with His-tag (domain or fragment, also called periplasmic domain of MucA; source: E. coli BL21 (DE3), purified (Ni–NTA, Superdex-75); not shown: His6, C-terminal, kept) YNQNDALPQMAQQGTTPQIALPQVKGPAVLAGYSEEQGAPQVITNSSSSDTRWHEQRLPIYLRQHVQQSAVSGTESALPYARAASLENR and give its measured pKd.
Return: 5.82
